- ASSAY TEXT: Pharmacokinetics and bioavailability, oral and I.V., in rats (Example 28)
- Assay type: in vivo
- STUDY CONDITIONS: rat, iv, 5 mg/kg, plasma; read-out: Cmax

COMPOUND	Cmax (ng/mL)
CC(C)CCC[C@@H](C)[C@H]1CC[C@H]2[C@@H]3C[C@@H](NCCc4c[nH]cn4)[C@@]4(O)C[C@@H](O)CC[C@]4(C)[C@H]3CC[C@]12C [DX101, reference compound]	3310

###

- ASSAY TEXT: Pharmacokinetics and bioavailability, oral and I.V., in rats (Example 28)
- Assay type: in vivo
- STUDY CONDITIONS: rat, po, 50 mg/kg, plasma; read-out: Cmax

COMPOUND	Cmax
CC(C)CCC[C@@H](C)[C@H]1CC[C@H]2[C@@H]3C[C@@H](NCCc4c[nH]cn4)[C@@]4(O)C[C@@H](O)CC[C@]4(C)[C@H]3CC[C@]12C [DX101, reference compound]	77 ng/mL

###

Entries and their measured pIC50 follow.
- Tested on: BT-474 human mammary tumor cells
- ASSAY TEXT: Cell viability of BT-474 cells, trypan blue
- Assay type: cell-based
- STUDY CONDITIONS: Homo sapiens; BT-474, Trypan Blue, 48 h
pIC50: −log10 of the molar value.
MEASUREMENT KIND: pIC50

COMPOUND	VALUE REPORTED
CCO[C@H]1CC[C@]2(C)[C@H]3CC[C@]4(C)[C@@H]([C@H](C)CCCC(C)C)CC[C@H]4[C@@H]3C[C@@H](NCCc3c[nH]cn3)[C@@]2(O)C1	5.45
CC(C)CCC[C@@H](C)[C@H]1CC[C@H]2[C@@H]3C[C@@H](NCCc4c[nH]cn4)[C@@]4(O)C[C@@H](F)CC[C@]4(C)[C@H]3CC[C@]12C	5.22
CC(C)CCC[C@@H](C)[C@H]1CC[C@H]2[C@@H]3C[C@@H](NCCc4c[nH]cn4)[C@@]4(O)C[C@@H](O)CC[C@]4(C)[C@H]3CC[C@]12C [DX101, reference compound]	5.39
CO[C@H]1CC[C@]2(C)[C@H]3CC[C@]4(C)[C@@H]([C@H](C)CCCC(C)C)CC[C@H]4[C@@H]3C[C@@H](NCCc3c[nH]cn3)[C@@]2(O)C1	5.58

###

- System: murine 4T1 mammary tumor cells
- ASSAY TEXT: Cell viability of 4T1 cells, LDH
- Type: cell-based
- STUDY CONDITIONS: Mus musculus; 4T1, LDH, 48 h; log of IC50 in μM; read-out: Mean LogIC50 (±SEM) (converted)
Entries and their measured IC50 follow.
MEASUREMENT KIND: IC50 (µM)

COMPOUND	VALUE REPORTED
CC(C)CCC[C@@H](C)[C@H]1CC[C@H]2[C@@H]3C[C@@H](NCCc4c[nH]cn4)[C@@]4(O)C[C@@H](N=[N+]=[N-])CC[C@]4(C)[C@H]3CC[C@]12C	1.45
CCCCCCCCO[C@H]1CC[C@]2(C)[C@H]3CC[C@]4(C)[C@@H]([C@H](C)CCCC(C)C)CC[C@H]4[C@@H]3C[C@@H](NCCc3c[nH]cn3)[C@@]2(O)C1	17.4
CC(=O)N[C@H]1CC[C@]2(C)[C@H]3CC[C@]4(C)[C@@H]([C@H](C)CCCC(C)C)CC[C@H]4[C@@H]3C[C@@H](NCCc3c[nH]cn3)[C@@]2(O)C1	7.08
CC(C)CCC[C@@H](C)[C@H]1CC[C@H]2[C@@H]3C[C@@H](NCCc4c[nH]cn4)[C@@]4(O)C[C@@H](O)CC[C@]4(C)[C@H]3CC[C@]12C [DX101, reference compound]	3.24
CO[C@H]1CC[C@]2(C)[C@H]3CC[C@]4(C)[C@@H]([C@H](C)CCCC(C)C)CC[C@H]4[C@@H]3C[C@@H](NCCc3c[nH]cn3)[C@@]2(O)C1	4.37

###

- Test system: murine 4T1 mammary tumor cells
- ASSAY TEXT: Cell viability of 4T1 cells, MTT
- Assay type: cell-based
- STUDY CONDITIONS: Mus musculus; 4T1, MTT, 48 h; log of IC50 in μM; read-out: Mean LogIC50 (±SEM) (converted)
MEASUREMENT KIND: IC50 (µM)

In [3]: df
Out[3]:
                                   compound               system_under_test  measurement_kind  value_reported
0  CC(C)CCC[C@@H](C)[C@H]1CC[C@H]2[C@@H]3C[C@@H](NCCc4c[nH]cn4)[C@@]4(O)C[C@@H](F)CC[C@]4(C)[C@H]3CC[C@]12C [DX111]  murine 4T1 mammary tumor cells              IC50             1.7
1  CO[C@H]1CC[C@]2(C)[C@H]3CC[C@]4(C)[C@@H]([C@H](C)CCCC(C)C)CC[C@H]4[C@@H]3C[C@@H](NCCc3c[nH]cn3)[C@@]2(O)C1 [DX103]  murine 4T1 mammary tumor cells              IC50            3.16
2  CC(C)CCC[C@@H](C)[C@H]1CC[C@H]2[C@@H]3C[C@@H](NCCc4c[nH]cn4)[C@@]4(O)C[C@@H](N)CC[C@]4(C)[C@H]3CC[C@]12C [DX125]  murine 4T1 mammary tumor cells              IC50             145

###

- ASSAY TEXT: Pharmacokinetics and bioavailability, oral and I.V., in rats (Example 28)
- Format: in vivo
- STUDY CONDITIONS: rat, in vivo, iv, 5 mg/kg
MEASUREMENT KIND: Cmax (ng/mL)

>>> df
                               smiles_input  measurement_kind  value_reported
0  CC(C)CCC[C@@H](C)[C@H]1CC[C@H]2[C@@H]3C[C@@H](NCCc4c[nH]cn4)[C@@]4(O)C[C@@H](F)CC[C@]4(C)[C@H]3CC[C@]12C              Cmax            2970

###

- Tested on: murine 4T1 mammary tumor cells
- ASSAY TEXT: Cell viability of 4T1 cells, MTT
- Type: cell-based
- STUDY CONDITIONS: 4T1, Tables 1a, 1b and 1c (MTT, LDH, Green Cytotoxicity Assay)
MEASUREMENT KIND: cytotoxic activity compared with DX101

>>> df
                               smiles_input               system_under_test                        measurement_kind  value_reported
0  CC(C)CCC[C@@H](C)[C@H]1CC[C@H]2[C@@H]3C[C@@H](NCCc4c[nH]cn4)[C@@]4(O)C[C@@H](S(C)(=O)=O)CC[C@]4(C)[C@H]3CC[C@]12C  murine 4T1 mammary tumor cells  cytotoxic activity compared with DX101           lower
1  CC(C)CCC[C@@H](C)[C@H]1CC[C@H]2[C@@H]3C[C@@H](NCCc4c[nH]cn4)[C@@]4(O)C[C@@H](N)CC[C@]4(C)[C@H]3CC[C@]12C  murine 4T1 mammary tumor cells  cytotoxic activity compared with DX101           lower
2  CC(=O)N[C@H]1CC[C@]2(C)[C@H]3CC[C@]4(C)[C@@H]([C@H](C)CCCC(C)C)CC[C@H]4[C@@H]3C[C@@H](NCCc3c[nH]cn3)[C@@]2(O)C1  murine 4T1 mammary tumor cells  cytotoxic activity compared with DX101           lower

###

- System: BT-474 human mammary tumor cells
- ASSAY TEXT: Cell viability of BT-474 cells, LDH
- Assay type: cell-based
- STUDY CONDITIONS: Homo sapiens; BT-474, LDH, 48 h
pIC50: −log10 of the molar value.

MOLECULE	pIC50
CC(C)CCC[C@@H](C)[C@H]1CC[C@H]2[C@@H]3C[C@@H](NCCc4c[nH]cn4)[C@@]4(O)C[C@@H](O)CC[C@]4(C)[C@H]3CC[C@]12C [DX101, reference compound]	4.97
CC(C)CCC[C@@H](C)[C@H]1CC[C@H]2[C@@H]3C[C@@H](NCCc4c[nH]cn4)[C@@]4(O)C[C@@H](F)CC[C@]4(C)[C@H]3CC[C@]12C	5.11

###

- ASSAY TEXT: Pharmacokinetics and bioavailability, oral and I.V., in rats (Example 28)
- Type: in vivo
- STUDY CONDITIONS: rat, plasma, iv, 5 mg/kg, iv, 5 mg/kg, read-out: Vss
MEASUREMENT KIND: Vd (L/kg)

MOLECULE	MEASUREMENT KIND	VALUE REPORTED
CC(C)CCC[C@@H](C)[C@H]1CC[C@H]2[C@@H]3C[C@@H](NCCc4c[nH]cn4)[C@@]4(O)C[C@@H](O)CC[C@]4(C)[C@H]3CC[C@]12C [DX101, reference compound]	Vd	19
